These entries and their values trace back to ChEMBL document CHEMBL5113443.

Attribute: Activity
# tested-target: DNA repair protein RAD51 homolog 1 (Homo sapiens) (UniProt Q06609)
# Sequence (whole entry): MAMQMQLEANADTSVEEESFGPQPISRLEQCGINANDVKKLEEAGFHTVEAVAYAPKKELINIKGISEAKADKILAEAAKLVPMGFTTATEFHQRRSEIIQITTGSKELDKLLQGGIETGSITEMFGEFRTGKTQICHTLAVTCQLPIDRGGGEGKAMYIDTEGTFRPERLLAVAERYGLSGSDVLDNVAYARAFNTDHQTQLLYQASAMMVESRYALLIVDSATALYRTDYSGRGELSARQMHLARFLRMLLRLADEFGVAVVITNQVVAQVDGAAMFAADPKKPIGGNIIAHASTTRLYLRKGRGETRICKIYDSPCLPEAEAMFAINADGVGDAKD
# procedure-details: Binding affinity to RAD51 (158 to 180 residues) (unknown origin) assessed as beta-sheet content at 15 uM by circular dichroism spectroscopy (reference value: 17.7%)
Where a SMILES comes first, the peptide text is derived from it. The star is where a group is joined. Nicotinoyl = O=C(c1cccnc1)*; X4 = Cc1ccncc1C(=O)*
Quick note: give the figure in %, leave out the unit.

molecule	Activity (%)
Cc1ccncc1C(=O)N[C@@H](Cc1ccc(O)cc1)C(=O)N[C@@H](CC(C)C)C(=O)N[C@@H](CCC(N)=O)C(=O)N[C@@H](CC(N)=O)C(=O)N[C@H](C(=O)N[C@@H](Cc1ccccc1)C(=O)N[C@@H](CCCCN)C(=O)N[C@H](C(=O)N[C@@H](CO)C(=O)N[C@@H](CCCCN)C(=O)N[C@@H](CCCNC(=N)N)C(=O)N[C@@H](CCC(N)=O)C(=O)N[C@@H](CO)C(=O)N[C@@H](Cc1ccccc1)C(=O)N[C@@H](C)C(=O)N1CCC[C@H]1C(N)=O)C(C)C)[C@@H](C)O (X4-YLQNTFKVSKRQSFAP-NH2)	11.3

Quick one: Activity of CC(C)C[C@H](NC(=O)[C@H](Cc1ccc(O)cc1)NC(=O)c1cccnc1)C(=O)N[C@@H](CCC(N)=O)C(=O)N[C@@H](CC(N)=O)C(=O)N[C@H](C(=O)N[C@@H](Cc1ccccc1)C(=O)N[C@@H](CCCCN)C(=O)N[C@H](C(=O)N[C@@H](CO)C(=O)N[C@@H](CCCCN)C(=O)N[C@@H](CCCNC(=N)N)C(=O)N[C@@H](CCC(N)=O)C(=O)N[C@@H](CO)C(=O)N[C@@H](Cc1ccccc1)C(=O)N[C@@H](C)C(=O)N1CCC[C@H]1C(N)=O)C(C)C)[C@@H](C)O (Nicotinoyl-YLQNTFKVSKRQSFAP-NH2) ?
13.9

====

# tested-target: UniProt:Q06609
# procedure-details: Binding affinity to RAD51 (158 to 180 residues) (unknown origin) assessed as binding constant by fluorescence spectroscopy
Where a SMILES comes first, the peptide text is derived from it. The star is where a group is joined. X5 = O=C(c1ccc[n+]([O-])c1)*
experimental-endpoint: Binding constant

Checklist item: Binding constant tested on UniProt:Q06609, entry CC(C)C[C@H](NC(=O)[C@H](Cc1ccc(O)cc1)NC(=O)c1ccc[n+]([O-])c1)C(=O)N[C@@H](CCC(N)=O)C(=O)N[C@@H](CC(N)=O)C(=O)N[C@H](C(=O)N[C@@H](Cc1ccccc1)C(=O)N[C@@H](CCCCN)C(=O)N[C@H](C(=O)N[C@@H](CO)C(=O)N[C@@H](CCCCN)C(=O)N[C@@H](CCCNC(=N)N)C(=O)N[C@@H](CCC(N)=O)C(=O)N[C@@H](CO)C(=O)N[C@@H](Cc1ccccc1)C(=O)N[C@@H](C)C(=O)N1CCC[C@H]1C(N)=O)C(C)C)[C@@H](C)O (X5-YLQNTFKVSKRQSFAP-NH2) , value?
0.89 10^4/M
